Value source: ChEMBL document CHEMBL1156226

Target: RAC-alpha serine/threonine-protein kinase (Homo sapiens, UniProt P31749)
Sequence (P31749 whole entry): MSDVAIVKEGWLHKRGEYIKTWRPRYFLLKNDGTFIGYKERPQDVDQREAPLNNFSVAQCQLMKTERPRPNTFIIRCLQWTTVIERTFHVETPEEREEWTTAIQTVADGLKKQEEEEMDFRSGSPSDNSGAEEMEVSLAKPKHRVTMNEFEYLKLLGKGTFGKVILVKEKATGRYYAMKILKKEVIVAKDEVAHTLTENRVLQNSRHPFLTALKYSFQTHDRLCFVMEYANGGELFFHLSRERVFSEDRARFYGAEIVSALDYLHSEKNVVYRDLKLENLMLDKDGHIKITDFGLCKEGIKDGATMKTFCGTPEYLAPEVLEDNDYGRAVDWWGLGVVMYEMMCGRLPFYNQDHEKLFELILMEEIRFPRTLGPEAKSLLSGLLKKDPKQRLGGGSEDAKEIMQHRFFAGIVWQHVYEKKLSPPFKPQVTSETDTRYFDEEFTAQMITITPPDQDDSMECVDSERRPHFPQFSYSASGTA
Experiment: Inhibition of PKB at 5 uM by radioactive kinase assay relative to control
Square brackets hold non-standard residues; d marks the D form. Peptide text beside a SMILES is read from it. Gly(N-4-hydroxybenzyl) = O=C(O)CNCc1ccc(O)cc1; hLeu = CC(C)CC[C@H](N)C(=O)O; Nva = CCC[C@H](N)C(=O)O; Dap = NC[C@H](N)C(=O)O
Mark -1 for inhibition values under 80%, and 1 for everything at or above.

COMPOUND: CCC[C@H](NC(=O)[C@H](CCCNC(=N)N)NC(=O)[C@@H]1CCCN1C(=O)[C@@H](N)CCCNC(=N)N)C(=O)N[C@@H](Cc1ccc(O)cc1)C(=O)N[C@@H](CN)C(=O)N[C@@H](CCC(C)C)C(N)=O (HELM PEPTIDE1{R.P.R.[Nva].Y.[NC[C@H](N[*:1])C(=O)[*:2]].[CC(C)CC[C@H](N[*:1])C(=O)[*:2]].[am]}$$$$V2.0)
CLASSIFICATION: 1

Task: Item CCC[C@H](NC(=O)[C@H](CCCNC(=N)N)NC(=O)[C@H](C)N(C)C(=O)[C@@H](N)CCCNC(=N)N)C(=O)N[C@@H](Cc1ccc(O)cc1)C(=O)N[C@@H](CN)C(=O)N[C@@H](CCC(C)C)C(N)=O (HELM PEPTIDE1{R.[meA].R.[Nva].Y.[NC[C@H](N[*:1])C(=O)[*:2]].[CC(C)CC[C@H](N[*:1])C(=O)[*:2]].[am]}$$$$V2.0) with inhibition of 80% or above?
Result: -1

Task: Repeat with CCC[C@H](NC(=O)[C@H](CCCNC(=N)N)NC(=O)[C@@H]1CCCN1C(=O)[C@@H](N)CCCNC(=N)N)C(=O)N[C@@H](Cc1ccc(O)cc1)C(=O)N[C@@H](CN)C(=O)N(C)[C@@H](CCC(C)C)C(N)=O (HELM PEPTIDE1{R.P.R.[Nva].Y.[NC[C@H](N[*:1])C(=O)[*:2]].[CC(C)CC[C@@H](C(=O)[*:2])N(C)[*:1]].[am]}$$$$V2.0)
Result: -1

Task: Record: CCC[C@H](NC(=O)[C@H](CCCNC(=N)N)NC(=O)[C@@H]1CCCN1C(=O)[C@H](CCCNC(=N)N)NC)C(=O)N[C@@H](Cc1ccc(O)cc1)C(=O)N[C@@H](CN)C(=O)N[C@@H](CCC(C)C)C(N)=O (HELM PEPTIDE1{[meR].P.R.[Nva].Y.[NC[C@H](N[*:1])C(=O)[*:2]].[CC(C)CC[C@H](N[*:1])C(=O)[*:2]].[am]}$$$$V2.0)
Result: 1

Task: Another: CCC[C@H](NC(=O)[C@H](CCCNC(=N)N)NC(=O)[C@@H]1CCCN1C(=O)[C@H](CCCNC(=N)N)NC(C)=O)C(=O)N[C@@H](Cc1ccc(O)cc1)C(=O)N[C@@H](CN)C(=O)N[C@@H](CCC(C)C)C(N)=O (HELM PEPTIDE1{[ac].R.P.R.[Nva].Y.[NC[C@H](N[*:1])C(=O)[*:2]].[CC(C)CC[C@H](N[*:1])C(=O)[*:2]].[am]}$$$$V2.0)
Result: -1

Task: Same question for CCC[C@H](NC(=O)[C@H](CCCNC(=N)N)NC(=O)[C@@H]1CCCN1C(=O)[C@@H](N)CCCNC(=N)N)C(=O)N(CC(=O)N[C@@H](CN)C(=O)N[C@@H](CCC(C)C)C(N)=O)Cc1ccc(O)cc1 (H-RPR[Nva][Gly(N-4-hydroxybenzyl)][Dap][hLeu]-NH2) please.
Result: -1
